FYI, the data here is from patent US20230115257A1.

assayed_system: T1, SARS-CoV-2 P.1 spike protein (SARS-CoV-2 P.1 (Gamma), UniProt P0DTC2 13-1213)
T1 construct: also called gamma; SARS-CoV-2 P.1 spike trimer variant
protocol_details: Table A: binding pattern against variant spike proteins
assay_readout: binding result

[[record]]
binder = "3-K11-A (antibody, V domains shown) VH: EVQLQQSGPELVKPGASVKMSCKASGYTFTSYVMHWVKQKPGQGLEWIGYINPYNDGTEYNEKFKGKATLTSDKSSSTAYMELSSLTSEDSAVYHCAREAYRYFDVWGTGTTVTVSS VL: DIQMTQSPASLSVSVGETVTITCRASENIYSNLAWYQQKQGKYPQLLVYGATNLADGVPSRFSGSGSGTQYFLKINSLQSEDFGSYYCQHFWGIPWTFGGGTKLEIK"
assay_readout = "binding result"
endpoint_result = "no binding"

[[record]]
binder = "9-G24-A (antibody, V domains shown) VH: QVQLQQSGAELVRPGASVKLSCKASGYTFTDYEMHWVKQTPVHGLEWIGVIDPETGDTAYNQKFKDKATLTADKSSSTAYMELRSLTSEDSAVYYCARRRDYGNPYWYFDVWGAGTAVTVSS VL: EIVLTQSPALMAASPGEKVTITCSASSSISSSNLHWYQQKSGTSPKPWIYGTSNLASGVPVRFSGSGSGTSYSLTISSMEAEDAATYVCQQWSNYPYTFGSGTKLEIK"
assay_readout = "binding result"
endpoint_result = "no binding"

[[record]]
binder = "3-P17-A (antibody, V domains shown) VH: QVQLKQSGPGLVQPSQSLSITCTVSGFSLTSYGVHWVRQSPGKGLEWLGVIWSGGITDYNAGFISRLSISKDNSKSQVFFTMNSLQADDTAIYYCARIITTVLDQFADWGQGTLVTVSA VL: DIVLTQSPASLAVSLGQRATISCRASQSVSTSTYSYIHWYQQKPGQPPKLLIKYASNLESGVPARFSGSGSGTDFTLNIHPVEEEDTATYYCQHSWEIPPTFGAGTKLELK"
assay_readout = "binding result"
endpoint_result = "no binding"

[[record]]
binder = "9-M12-A (antibody, V domains shown) VH: EVQLVESGGDLVKPGGSLKLSCTASGFTFSSYGMSWVRQTPDKRLEWVTTISSGGGYTYVPDSVKGRFTISRDNAKNTLYLHMSSLKSEDTAMYFCARPLIPTMVEAFDYWGQGTSLTVSS VL: SIVMTQTPKFLPVSAGDRVTMTCKASQSVGNNVAWYQQKPGQSPKLLIYYASNRYTGVPDRFTGSGSGADFTFTISSVQVEDLAVYFCQQHYSSPFTFGTGTKLEIK"
assay_readout = "binding result"
endpoint_result = "no binding"

